# Lookup of reported inhibition keyed by entry
Target: Frizzled-1 (Homo sapiens)
Experiment: Antagonist activity at Wnt3a-stimulaed frizzled-1 (unknown origin) expressed in human HEK293superTOP flash cells at 1 nM incubated for 24 hrs by luciferase reporter gene assay (reference value: 0%)
Assay type: functional, cell-based
Settings: HEK293, filed as antagonist
Where a SMILES comes first, the peptide text is derived from it.
Report the value in % with no unit label.

compound	inhibition [%]
CSCC[C@H](NC(=O)[C@H](C)NC(=O)[C@H](CCC(=O)O)NC(=O)[C@H](CO)NC(=O)[C@@H](NC(=O)[C@H](CCCCN)NC(=O)[C@H](CC(N)=O)NC(=O)[C@H](CS)NC(C)=O)[C@@H](C)O)C(=O)N[C@@H](CC(=O)O)C(=O)NCC(=O)N[C@@H](CS)C(=O)N[C@@H](CCC(=O)O)C(=O)N[C@@H](CC(C)C)C(N)=O (Ac-CNKTSEAMDGCEL-NH2)	52.6

So the reported inhibition for CSCC[C@H](NC(=O)CNC(=O)[C@H](CCC(=O)O)NC(=O)[C@H](CO)NC(=O)[C@@H](NC(=O)[C@H](CCCCN)NC(=O)[C@H](CC(N)=O)NC(=O)[C@H](CS)NC(C)=O)[C@@H](C)O)C(=O)N[C@@H](CC(=O)O)C(=O)NCC(=O)N[C@@H](CS)C(=O)N[C@@H](CCC(=O)O)C(=O)N[C@@H](CC(C)C)C(N)=O (Ac-CNKTSEGMDGCEL-NH2) , on Frizzled-1 (Homo sapiens), turned out to be 18

So the reported inhibition for CSCC[C@H](NC(=O)CNC(=O)[C@H](C)NC(=O)[C@H](CO)NC(=O)[C@@H](NC(=O)[C@H](CCCCN)NC(=O)[C@H](CC(N)=O)NC(=O)[C@H](CS)NC(C)=O)[C@@H](C)O)C(=O)N[C@@H](CC(=O)O)C(=O)NCC(=O)N[C@@H](CS)C(=O)N[C@@H](CCC(=O)O)C(=O)N[C@@H](CC(C)C)C(N)=O (Ac-CNKTSAGMDGCEL-NH2) , on Frizzled-1 (Homo sapiens), turned out to be 70.8

So the reported inhibition for CC(=O)N[C@@H](CS)C(=O)N[C@@H](CC(N)=O)C(=O)N[C@@H](CCCCN)C(=O)N[C@H](C(=O)N[C@@H](CO)C(=O)N[C@@H](CCC(=O)O)C(=O)NCC(=O)N[C@@H](C)C(=O)N[C@@H](CC(=O)O)C(=O)NCC(=O)N[C@@H](CS)C(=O)N[C@@H](CCC(=O)O)C(=O)N[C@@H](CC(C)C)C(N)=O)[C@@H](C)O (Ac-CNKTSEGADGCEL-NH2) , on Frizzled-1 (Homo sapiens), turned out to be 67.6

So the reported inhibition for CSCC[C@H](NC(=O)CNC(=O)[C@H](CCC(=O)O)NC(=O)[C@H](CO)NC(=O)[C@@H](NC(=O)[C@H](CCCCN)NC(=O)[C@H](C)NC(=O)[C@H](CS)NC(C)=O)[C@@H](C)O)C(=O)N[C@@H](CC(=O)O)C(=O)NCC(=O)N[C@@H](CS)C(=O)N[C@@H](CCC(=O)O)C(=O)N[C@@H](CC(C)C)C(N)=O (Ac-CAKTSEGMDGCEL-NH2) , on Frizzled-1 (Homo sapiens), turned out to be 68

So the reported inhibition for CSCC[C@H](NC(=O)CNC(=O)[C@H](CCC(=O)O)NC(=O)[C@H](C)NC(=O)[C@@H](NC(=O)[C@H](CCCCN)NC(=O)[C@H](CC(N)=O)NC(=O)[C@H](CS)NC(C)=O)[C@@H](C)O)C(=O)N[C@@H](CC(=O)O)C(=O)NCC(=O)N[C@@H](CS)C(=O)N[C@@H](CCC(=O)O)C(=O)N[C@@H](CC(C)C)C(N)=O (Ac-CNKTAEGMDGCEL-NH2) , on Frizzled-1 (Homo sapiens), turned out to be 74.3
